Attribution: patent US9079901B2

Each item that follows carries a reported inhibition at 1 µM.
Molecular target: wild-type human cardiac sodium channel, hNav1.5 (late sodium current) in HEK293 cells (Homo sapiens, UniProt Q14524)
Sequence (Q14524 whole entry): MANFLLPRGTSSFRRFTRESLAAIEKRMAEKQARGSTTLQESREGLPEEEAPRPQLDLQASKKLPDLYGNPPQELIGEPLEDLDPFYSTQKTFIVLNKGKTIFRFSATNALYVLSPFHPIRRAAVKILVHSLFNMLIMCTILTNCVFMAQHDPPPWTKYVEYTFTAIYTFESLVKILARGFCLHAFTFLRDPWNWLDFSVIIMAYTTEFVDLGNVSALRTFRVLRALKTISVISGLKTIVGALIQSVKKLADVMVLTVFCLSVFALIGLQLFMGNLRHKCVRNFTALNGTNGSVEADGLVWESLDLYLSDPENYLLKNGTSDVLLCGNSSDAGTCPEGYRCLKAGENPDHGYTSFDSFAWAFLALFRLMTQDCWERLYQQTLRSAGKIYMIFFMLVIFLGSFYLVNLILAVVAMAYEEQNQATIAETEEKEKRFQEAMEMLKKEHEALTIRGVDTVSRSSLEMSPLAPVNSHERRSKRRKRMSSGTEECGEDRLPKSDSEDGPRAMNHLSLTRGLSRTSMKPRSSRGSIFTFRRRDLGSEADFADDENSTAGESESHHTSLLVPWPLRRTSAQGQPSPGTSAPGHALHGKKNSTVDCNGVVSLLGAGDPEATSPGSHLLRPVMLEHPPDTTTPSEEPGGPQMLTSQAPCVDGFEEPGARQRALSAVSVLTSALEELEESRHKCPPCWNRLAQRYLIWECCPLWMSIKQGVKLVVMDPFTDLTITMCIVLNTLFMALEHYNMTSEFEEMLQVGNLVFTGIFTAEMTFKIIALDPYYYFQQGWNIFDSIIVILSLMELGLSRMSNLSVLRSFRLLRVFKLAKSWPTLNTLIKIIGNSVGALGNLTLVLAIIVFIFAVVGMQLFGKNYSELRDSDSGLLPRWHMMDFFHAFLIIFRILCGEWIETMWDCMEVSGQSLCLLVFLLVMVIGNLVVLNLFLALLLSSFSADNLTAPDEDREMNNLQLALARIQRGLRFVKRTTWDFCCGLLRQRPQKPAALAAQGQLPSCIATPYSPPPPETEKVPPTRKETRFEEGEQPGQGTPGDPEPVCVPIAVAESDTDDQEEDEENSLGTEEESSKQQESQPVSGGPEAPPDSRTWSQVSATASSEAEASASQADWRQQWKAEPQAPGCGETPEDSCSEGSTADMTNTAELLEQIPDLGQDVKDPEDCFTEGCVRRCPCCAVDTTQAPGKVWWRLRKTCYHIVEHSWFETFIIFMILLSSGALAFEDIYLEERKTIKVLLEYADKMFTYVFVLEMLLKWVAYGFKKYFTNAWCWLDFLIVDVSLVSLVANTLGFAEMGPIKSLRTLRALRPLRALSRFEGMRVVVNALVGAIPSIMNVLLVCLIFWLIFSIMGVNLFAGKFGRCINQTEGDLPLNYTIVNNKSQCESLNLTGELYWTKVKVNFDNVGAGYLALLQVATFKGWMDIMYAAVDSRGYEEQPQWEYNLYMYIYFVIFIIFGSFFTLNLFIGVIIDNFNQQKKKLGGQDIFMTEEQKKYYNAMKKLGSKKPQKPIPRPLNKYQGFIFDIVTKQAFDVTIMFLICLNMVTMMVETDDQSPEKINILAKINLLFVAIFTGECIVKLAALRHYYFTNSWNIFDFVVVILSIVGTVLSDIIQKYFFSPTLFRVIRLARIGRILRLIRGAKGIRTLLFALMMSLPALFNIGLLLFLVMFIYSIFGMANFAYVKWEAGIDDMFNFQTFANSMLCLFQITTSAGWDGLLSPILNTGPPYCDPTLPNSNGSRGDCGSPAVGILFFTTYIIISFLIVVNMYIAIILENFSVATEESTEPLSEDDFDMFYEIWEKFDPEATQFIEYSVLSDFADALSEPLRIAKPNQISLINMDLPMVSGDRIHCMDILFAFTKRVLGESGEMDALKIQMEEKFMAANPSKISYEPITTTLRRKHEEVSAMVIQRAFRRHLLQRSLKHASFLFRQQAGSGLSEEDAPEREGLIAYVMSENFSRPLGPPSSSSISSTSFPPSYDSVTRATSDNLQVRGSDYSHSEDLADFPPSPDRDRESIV
Experiment: Late INa screening assay (automated whole-cell patch clamp, PatchXpress)
Format: cell-based
Settings: HEK293, compound at 1 μM; late INa generated with 10 μM Tefluthrin (or 50 nM ATX II); HEK293 hNav1.5; read-out: Late INa 1 μM (percent block of late INa)

# Compound, inhibition at 1 µM, %
measured = [
    ("O=c1n(CCc2cnccn2)nc2ccc(-c3ccc(OC(F)(F)F)cc3)cn12", 14.4),
    ("COc1ccccc1OCC(O)Cn1nc2ccc(-c3ccc(OC(F)(F)F)cc3)cn2c1=O (centres unmarked)", 20.8),
    ("O=c1n(CCOc2ncc(F)c(N3CC(F)(F)C3)n2)nc2ccc(-c3ccc(OC(F)(F)F)cc3)cn12", 20.5),
    ("Cn1c(CCn2nc3ccc(-c4ccc(OC(F)(F)F)cc4)cn3c2=O)nc2ccccc21", 16),
    ("O=c1n(C2COCC2Oc2ncccn2)nc2ccc(-c3ccc(OC(F)(F)F)cc3)cn12 (centres unmarked)", 12.9),
    ("O=c1[nH]nc2ccc(-c3ccc(Oc4ccc(F)cc4)cc3)cn12", 56.6),
    ("Cc1noc(C(C)n2nc3ccc(-c4ccc(OC(F)(F)F)cc4)cn3c2=O)n1 (centres unmarked)", 13.4),
    ("O=c1n(-c2ccccn2)nc2ccc(-c3ccc(OC(F)(F)F)cc3)cn12", 26),
]

###

Target: wild-type human cardiac sodium channel, hNav1.5 (late sodium current) in HEK293 cells (Homo sapiens)
Experiment: Late INa screening assay (automated whole-cell patch clamp, PatchXpress)
Assay type: cell-based
Details: compound at 1 μM; late INa generated with 10 μM Tefluthrin (or 50 nM ATX II); HEK293 hNav1.5
Metric: Late INa 1 μM (percent block of late INa) (%)

# Chemical Structure, Assay Result
measured = [
    ("O=c1n(CCCOc2ccccc2C(F)(F)F)nc2ccc(-c3ccc(OC(F)(F)F)cc3)cn12", 26.0692),
    ("N#CCOc1ccnc(OCCn2nc3ccc(-c4ccc(OC(F)(F)F)cc4)cn3c2=O)n1", 24.6907),
    ("CCc1noc(Cn2nc3ccc(-c4ccc(OC(F)(F)F)cc4)cn3c2=O)n1", 13.5253),
    ("N#Cc1ccnc(OCCn2nc3ccc(-c4ccc(OC(F)(F)F)cc4)cn3c2=O)n1", 16.1133),
]

###

Target: wild-type human cardiac sodium channel, hNav1.5 (late sodium current) in HEK293 cells (Homo sapiens, UniProt Q14524)
Assay: Late INa screening assay (automated whole-cell patch clamp, PatchXpress)
Type: cell-based
Settings: HEK293, compound at 1 μM; late INa generated with 10 μM Tefluthrin (or 50 nM ATX II); HEK293 hNav1.5; read-out: Late INa 1 μM (percent block of late INa)
A collection of compounds and their measured inhibition at 1 µM

# Compound, inhibition at 1 µM (%)
rows = [
    ("CO[C@H](COc1ccccc1Cl)Cn1nc2ccc(-c3ccc(OC(F)(F)F)cc3)cn2c1=O", 42.5),
    ("O=c1n(CC2CCc3ccccc3O2)nc2ccc(-c3ccc(OC(F)(F)F)cc3)cn12 (stereo not shown)", 32.1),
    ("O=c1n(CCN2CCC(Oc3ccccc3)C2)nc2ccc(-c3ccc(OC(F)(F)F)cc3)cn12 (stereo not shown)", 45.4),
    ("O=c1n(CCN2CCC(F)(F)CC2)nc2ccc(-c3ccc(OC(F)(F)F)cc3)cn12", 14.2),
]
